# target: UniProt O00487
# Sequence (O00487 whole entry, the tested form may be a part): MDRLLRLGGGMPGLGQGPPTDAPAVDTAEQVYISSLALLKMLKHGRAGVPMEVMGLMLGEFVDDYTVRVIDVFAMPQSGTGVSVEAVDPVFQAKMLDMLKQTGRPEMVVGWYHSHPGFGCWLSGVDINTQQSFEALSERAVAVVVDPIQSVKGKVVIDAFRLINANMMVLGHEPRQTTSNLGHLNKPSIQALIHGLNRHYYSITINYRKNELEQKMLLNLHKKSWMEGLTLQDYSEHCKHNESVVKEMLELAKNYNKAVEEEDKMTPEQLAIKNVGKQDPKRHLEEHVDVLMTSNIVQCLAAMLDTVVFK
# method.notes: log2 ratio of Biotin-Ahx-Ub-VS probe labelling (fragment/DMSO); higher = less target engagement (more negative = stronger competition), active = hit call of the paper (q ≤ 0.05, log2 ratio ≤ -1)
# stated.conditions: compound concentration: 200 uM; treatment time: 3 h
recorded.endpoint: log2 ratio of Biotin-Ahx-Ub-VS probe labelling

# example entries with known answers
molecule=O=C(CCl)Nc1nnc(CC(F)(F)F)o1 recorded_measurement="-0.296 (inactive)"
molecule=Cl.O=C(CCl)N1CC(c2ccc(Br)cn2)C1 recorded_measurement="-0.285 (inactive)"
molecule=O=C(CCl)NCc1noc(C2CC2)n1 recorded_measurement="-0.16 (inactive)"
molecule="CN(CCC(O)c1ccc(Br)cc1)C(=O)CCl (configuration not stated)" recorded_measurement="-0.00696 (inactive)"
molecule=Cc1n[nH]c(=O)c2c(NC(=O)CCl)oc(C)c12 recorded_measurement="-0.0655 (inactive)"
molecule=N#Cc1cnn(-c2ccccc2)c1NC(=O)CCl recorded_measurement="-0.0605 (inactive)"

Task: log2 ratio of Biotin-Ahx-Ub-VS probe labelling of `O=C(CCl)Nc1cccc(NC(=O)c2ccccc2)c1` on UniProt O00487?
Output: 0.00956 (inactive)
